Cited source: patent US20200270237A1

SYSTEM NAME: Human α2δ-1 Subunit of Cav2.2 Calcium Channel (Homo sapiens)
EXPERIMENTAL PROTOCOL: biochemical
Assay type: binding
QUANTITY MEASURED: Ki

A selection of reference data follows.
CNCCC(Oc1ccc(CCN2CCC(c3ccccc3)(N(C)C)CC2)cc1)c1cccs1 (centres unmarked) : > 3000 nM
CNCC[C@@H](OCc1cccc(CN2CCC(c3cccc(O)c3)(N(C)C)CC2)c1)c1cccs1 : 500 to 3000 nM
CNCC[C@H](Oc1cccc(CN2CCC(c3ccccc3)(N(C)C)CC2)c1)c1cccs1 : 500 to 3000 nM
CNCC[C@@H](Oc1cccc(CN2CCC(c3cccc(O)c3)(N(C)C)CC2)c1)c1cccs1 : 100 to 500 nM

[ask] Return Ki for the following molecule: `CNCC[C@H](Oc1cccc(CN2CCC(c3cccc(O)c3)(N(C)C)CC2)c1)c1cccs1`
[reply] 100 to 500 nM

[ask] Give reported Ki value for CNCCC(OCc1cccc(CN2CCC(c3ccccc3)(N(C)C)CC2)c1)c1ccccc1 (centres unmarked)
[reply] 500 to 3000 nM

[ask] Look up and report measured Ki for this entry: CNCCC(Oc1cccc(N2C[C@@H](C)N[C@@H](C)C2)c1)c1cccs1 (some centres unmarked)
[reply] 100 to 500 nM

[ask] Answer with reported Ki of `CNCC[C@@H](OCc1cccc(CN2CCC(c3ccccc3)(N(C)C)CC2)c1)c1ccccc1`
[reply] 500 to 3000 nM

----------
SYSTEM NAME: human μ-opioid receptor (Homo sapiens, UniProt P35372)
Sequence (P35372 whole entry): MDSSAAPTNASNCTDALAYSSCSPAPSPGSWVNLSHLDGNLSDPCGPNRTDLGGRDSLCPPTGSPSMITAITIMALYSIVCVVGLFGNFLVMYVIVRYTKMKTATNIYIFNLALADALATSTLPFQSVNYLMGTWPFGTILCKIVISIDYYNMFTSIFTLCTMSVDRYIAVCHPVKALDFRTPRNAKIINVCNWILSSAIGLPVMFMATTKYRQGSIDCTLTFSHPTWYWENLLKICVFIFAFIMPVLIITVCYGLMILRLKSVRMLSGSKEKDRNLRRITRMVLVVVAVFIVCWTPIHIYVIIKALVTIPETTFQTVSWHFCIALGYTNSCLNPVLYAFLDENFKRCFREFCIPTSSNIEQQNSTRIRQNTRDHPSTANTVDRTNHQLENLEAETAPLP
EXPERIMENTAL PROTOCOL: biochemical
Assay type: binding
pKi: −log10 of the molar value.
Examples of molecules with documented pKi follow.

Some solved cases for reference:
CNCCC(OCc1cccc(CN2CCC(c3ccccc3)(N(C)C)CC2)c1)c1ccccc1 (stereo not shown) [Example 25] : > 7.00
CNCCC(OCc1cccc(N2CCc3ccccc3C2=O)c1)c1cccs1 (stereo not shown) [Example 32] : 6.30 to 7.00
CNCC[C@@H](OCc1cccc(CN2CCC(c3ccccc3)(N(C)C)CC2)c1)c1ccccc1 [Example 26] : > 7.00

[ask] Please give the documented pKi of CNCC[C@H](OCc1cccc(CN2CCC(c3ccccc3)(N(C)C)CC2)c1)c1ccccc1 [Example 27]
[reply] > 7.00

----------
SYSTEM NAME: Human α2δ-1 Subunit of Cav2.2 Calcium Channel (Homo sapiens, UniProt P54289)
Sequence (P54289 25-1103): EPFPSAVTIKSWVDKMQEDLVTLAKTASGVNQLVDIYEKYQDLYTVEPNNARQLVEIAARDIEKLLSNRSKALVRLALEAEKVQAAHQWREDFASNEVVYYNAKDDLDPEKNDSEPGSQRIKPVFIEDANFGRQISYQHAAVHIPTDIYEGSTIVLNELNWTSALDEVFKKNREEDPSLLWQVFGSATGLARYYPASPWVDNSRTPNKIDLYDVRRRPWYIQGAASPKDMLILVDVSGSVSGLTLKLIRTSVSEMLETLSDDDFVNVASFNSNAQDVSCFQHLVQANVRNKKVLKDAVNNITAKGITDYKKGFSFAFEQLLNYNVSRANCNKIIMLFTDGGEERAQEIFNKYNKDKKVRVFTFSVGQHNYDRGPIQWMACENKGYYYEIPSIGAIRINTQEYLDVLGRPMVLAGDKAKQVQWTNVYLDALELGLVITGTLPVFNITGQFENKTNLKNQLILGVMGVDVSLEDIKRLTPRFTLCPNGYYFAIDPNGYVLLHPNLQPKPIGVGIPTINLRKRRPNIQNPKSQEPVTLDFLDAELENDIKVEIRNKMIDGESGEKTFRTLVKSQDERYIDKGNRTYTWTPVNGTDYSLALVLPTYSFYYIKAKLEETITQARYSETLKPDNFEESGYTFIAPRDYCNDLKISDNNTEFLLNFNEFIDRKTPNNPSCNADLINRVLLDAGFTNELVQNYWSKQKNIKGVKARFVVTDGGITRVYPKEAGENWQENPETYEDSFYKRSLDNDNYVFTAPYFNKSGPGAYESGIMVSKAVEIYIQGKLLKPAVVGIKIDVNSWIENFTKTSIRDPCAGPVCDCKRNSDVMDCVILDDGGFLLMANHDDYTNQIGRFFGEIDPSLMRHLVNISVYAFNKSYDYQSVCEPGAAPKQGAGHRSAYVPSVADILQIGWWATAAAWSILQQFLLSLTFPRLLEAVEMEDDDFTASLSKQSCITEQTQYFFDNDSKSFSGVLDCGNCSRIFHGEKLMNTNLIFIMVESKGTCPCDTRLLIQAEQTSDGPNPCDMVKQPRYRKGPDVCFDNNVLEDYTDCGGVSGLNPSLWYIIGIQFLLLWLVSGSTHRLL
EXPERIMENTAL PROTOCOL: biochemical
Type: binding
SETUP CONDITIONS: read-out: Ki (nM) alpha2delta Hum
QUANTITY MEASURED: Ki

Please review the entries below; each comes with its answer.
CNCC[C@@H](OCc1cccc(CN2CCN([C@@]3(C(=O)c4ccccn4)CCOC(C)(C)C3)CC2)c1)c1ccccc1 : 500 to 3000 nM
CNCCC(OCc1cccc(N2CCNc3ccccc32)c1)c1ccccc1 (stereo not drawn) : > 3000 nM
CC[C@]1(N2CCN(CCc3cccc(O[C@H](CCNC)c4ccccc4)c3)CC2)CCOC(C)(C)C1 [Example 12a] : 500 to 3000 nM
CC[C@@]1(N2CCN(Cc3cccc(CO[C@H](CCNC)c4ccccc4)c3)CC2)CCOC(C)(C)C1 : > 3000 nM
CC[C@@]1(N2CCN(CCc3cccc(O[C@H](CCNC)c4ccccc4)c3)CC2)CCOC(C)(C)C1 [Example 12b] : 500 to 3000 nM
CNCCC(OCc1cccc(N2CCC(N(C)C)CC2)c1)c1ccccc1 (stereo not drawn) : 500 to 3000 nM

[ask] Note down Ki recorded for CNCCC(Oc1cccc(C(=O)N2CCCCC2)c1)c1ccccc1 (stereo not drawn)
[reply] > 3000 nM

----------
SYSTEM NAME: Human α2δ-1 Subunit of Cav2.2 Calcium Channel (Homo sapiens)
EXPERIMENTAL PROTOCOL: biochemical
Type: binding
QUANTITY MEASURED: Ki

Worked cases, Ki given:
CNCCC(Oc1cccc(CN2CCC(c3ccccc3)(N(C)C)CC2)c1)c1cccs1 (stereo not shown) : 100 to 500 nM
CNCCC(OCc1cccc(N2CCc3ccccc3C2=O)c1)c1cccs1 (stereo not shown) : 500 to 3000 nM
CNCCC(Oc1ccc(CN2CCCc3ccccc32)c(F)c1)c1cccs1 (stereo not shown) : > 3000 nM

[ask] Provide Ki value for the following compound: CNCCC(Oc1ccc(CN2CCc3ccccc3C2)c(F)c1)c1cccs1 (stereo not shown)
[reply] > 3000 nM

[ask] Fill in reported Ki for this entry: CNCCC(Oc1cccc(CN2CCC(c3cccc(O)c3)CC2)c1)c1cccs1 (stereo not shown)
[reply] 100 to 500 nM

----------
SYSTEM NAME: human μ-opioid receptor (Homo sapiens)
EXPERIMENTAL PROTOCOL: biochemical
Type: binding
SETUP CONDITIONS: read-out: MU Ki
QUANTITY MEASURED: Ki

[ask] Please list Ki recorded for the molecule CNCCC(OCc1cccc(N2CCNc3ccccc32)c1)c1ccccc1 (stereo not shown)
[reply] > 1000 nM

----------
SYSTEM NAME: Human α2δ-1 Subunit of Cav2.2 Calcium Channel (Homo sapiens, UniProt P54289)
EXPERIMENTAL PROTOCOL: biochemical
Type: binding
SETUP CONDITIONS: Table 1; human α2δ-1 enriched membranes, 15 nM [3H]-Gabapentin; read-out: Ki (nM) alpha2delta Hum
Form field: Ki (one value per entry).

// worked examples, Ki included
CNCCC(Oc1cccc(N2CCC(c3ccccc3)(N(C)C)CC2)c1)c1cccs1 (centres unmarked) [Example 43] : 500 to 3000 nM
CNCC[C@@H](OCc1cccc(CN2CCC(c3ccccc3)(N(C)C)CC2)c1)c1cccs1 [Example 22] : 500 to 3000 nM
CNCC[C@H](OCc1cccc(CN2CCC(c3ccccc3)(N(C)C)CC2)c1)c1cccs1 [Example 21] : > 3000 nM
CNCCC(OCc1cccc(CN2CCC(c3ccccc3)(N(C)C)CC2)c1)c1cccs1 (centres unmarked) [Example 20] : 500 to 3000 nM

// below: Ki requested for another compound
[ask] Note Ki for the compound shown: CNCCC(Oc1cccc(C(=O)N2CCC(c3ccccc3)(N(C)C)CC2)c1)c1cccs1 (centres unmarked) [Example 7]
[reply] 500 to 3000 nM

----------
SYSTEM NAME: Human α2δ-1 Subunit of Cav2.2 Calcium Channel (Homo sapiens, UniProt P54289)
EXPERIMENTAL PROTOCOL: biochemical
Format: binding
SETUP CONDITIONS: Table 2 (dual compounds); human α2δ-1 enriched membranes, 15 nM [3H]-Gabapentin; read-out: Ki (nM) alpha2delta Hum
Here the recorded Ki is given for each entry.

CNCCC(Oc1cccc(C(=O)N2CCC(c3ccccc3)(N(C)C)CC2)c1)c1cccs1 (centres unmarked) [Example 7] : 500 to 3000 nM

Kindly consider the entry below.
[ask] Respond only with Ki recorded for CNCCC(OCc1cccc(CN2CCC(c3ccccc3)(N(C)C)CC2)c1)c1cccs1 (centres unmarked) [Example 20]
[reply] 500 to 3000 nM

----------
SYSTEM NAME: Human α2δ-1 Subunit of Cav2.2 Calcium Channel (Homo sapiens)
EXPERIMENTAL PROTOCOL: biochemical
Type: binding
SETUP CONDITIONS: read-out: Ki (nM) alpha2delta Hum
QUANTITY MEASURED: Ki

CNCCC(Oc1cccc(N2CCN(C)CC2=O)c1)c1cccs1 (centres unmarked) : > 3000 nM
CNCC[C@H](Oc1ccc(CN2CCn3cccc3C2=O)cc1)c1cccs1 : 500 to 3000 nM
CNCCC(Oc1cccc(N2CCNCC2)c1)c1cccs1 (centres unmarked) : 500 to 3000 nM
CNCC[C@H](Oc1cccc(CN2CCN([C@]3(C(=O)c4ccccn4)CCOC(C)(C)C3)CC2)c1)c1cccs1 : > 3000 nM

[ask] Report value: Ki, system: Human α2δ-1 Subunit of Cav2.2 Calcium Channel (Homo sapiens), molecule: CNCCC(Oc1cccc(N2CCN(C)CC2)c1)c1ccccc1 (centres unmarked)
[reply] 500 to 3000 nM

[ask] Fill in Ki for CNCCC(OCc1cccc(N2CCCCC2=O)c1)c1cccs1 (centres unmarked) tested with Human α2δ-1 Subunit of Cav2.2 Calcium Channel (Homo sapiens).
[reply] 500 to 3000 nM

[ask] Recall the reported Ki of `CNCC[C@H](Oc1cccc(CN2CCN([C@@]3(C(=O)c4ccccn4)CCOC(C)(C)C3)CC2)c1)c1cccs1` on Human α2δ-1 Subunit of Cav2.2 Calcium Channel (Homo sapiens) and write it down.
[reply] > 3000 nM

[ask] Look up Human α2δ-1 Subunit of Cav2.2 Calcium Channel (Homo sapiens) data: Ki of CNCCC(Oc1cccc(CN2CCNCC2)c1)c1cccs1 (centres unmarked) , then report it.
[reply] 500 to 3000 nM

[ask] Given CNCCC(Oc1ccc(C(=O)N2CCC(c3ccccc3)(N(C)C)CC2)cc1)c1cccs1 (centres unmarked) , report its Ki on Human α2δ-1 Subunit of Cav2.2 Calcium Channel (Homo sapiens).
[reply] > 3000 nM

[ask] State measured Ki of the molecule CNCCC(Oc1cccc(N2CCN(C)CC2)c1)c1cccs1 (centres unmarked) with Human α2δ-1 Subunit of Cav2.2 Calcium Channel (Homo sapiens).
[reply] 500 to 3000 nM

[ask] Specify Ki for CNCCC(OCc1cccc(N2CCCCC2=O)c1)c1ccccc1 (centres unmarked) , system Human α2δ-1 Subunit of Cav2.2 Calcium Channel (Homo sapiens).
[reply] 500 to 3000 nM
